Below is a list of entries, each paired with its recorded Tm value.
# testProtocol: melting temperature; fluorescence melt of hairpins on a sequencing array, two-state fit, raised by 9.35 °C to match UV melts
# conditionDescription: sodium 0.088 M
Number only, in °C; omit the unit.

These recorded examples may help you get a feel for the data.
GATCCTAGCAAGGATC ((((((....)))))); 52.8
GTAGCGCGAAAGCGTAC (((.(((....)))))); 44
GATGCGGGAAACCGTGTC ((..(((....)))..)); 43.7
GCGACCGAAAGGTTTCGC ((((((....)))..))); 49

*Q* // query Tm value for entry GATCGAGTCTTCGATC ((((((....))))))
*A* 58.4

*Q* Then GCGGTAGCGAAAGCTCGC (((..(((....)))))) ?
*A* 52.8

*Q* Then GATCGCATATGCGATC ((((((....)))))) ?
*A* 68.8

*Q* Then GATCCGTAGCCGGATC ((((((....)))))) ?
*A* 56.1

*Q* Then GGATCGAAAGATCC (((((....))))) ?
*A* 65.3

*Q* Then GCCCCGGCGAAAGCCGGC (((..(((....)))))) ?
*A* 39.8

*Q* Then GCATAGCGAAAGCGCTGC (((..((....))..))) ?
*A* 51.3

*Q* Then GCACTGGGAAACCAATGC (((.(((....))).))) ?
*A* 40.3

###

# testProtocol: melting temperature; fluorescence melt of hairpins on a sequencing array, two-state fit, raised by 9.35 °C to match UV melts
# conditionDescription: sodium 0.088 M
Assign class by Tm: not lower than 50 °C means 1; lower than 50 °C means -1.

See these solved cases before continuing.
GATCACAAGAGTGATC ((((((....)))))); 1
GGGGTCGGAAACGACTCC ((.((((....)))).)); 1
GCGCAAGGAAACCTACGC (((.(.(....).).))); -1

*Q* Does Tm meet or surpass 50 °C for GCTTGGCGAAAGCGATGC ((.(.((....)).).)) ?
*A* -1

*Q* Then GATCGTCGGTACGATC ((((((....)))))) ?
*A* 1

*Q* Then GATCGTTCTTACGATC ((((((....)))))) ?
*A* 1

*Q* Then GCATTGCGAAAGCGAAGC ((.(.((....)).).)) ?
*A* -1

###

# testProtocol: melting temperature; fluorescence melt of hairpins on a sequencing array, two-state fit, raised by 9.35 °C to match UV melts
# conditionDescription: sodium 0.088 M
measureName: Tm (°C)
Number only, in °C; omit the unit.

These recorded examples may help you get a feel for the data.
GTCTCCGAAAGGAACGAC ((((((....)))..))); 36.3
GGTGAAGGAAACTTCGTC (..((((....))))..); 26.6
GCGCCGCGAAAGCCGGGC ((.(.((....)).).)); 55.3
GGAGTCCGAAAGGAATCC (((.(((....))).))); 56.4
GTCCACGAAAGTGTGAC ((((((....))).))); 50.4

Note: attention shifts to another entry.
*Q* // query Tm value for entry GTTTGAGGAAACCCAAAC (((((.(....).)))))
*A* 36.8
